Where do the numbers come from? From PubChem BioAssay AID1259407.

- Test system: CCRIS mutagenicity, Ames/micronucleus/aberration tests
- assaySummary: CCRIS mutagenicity studies
- experimentalContext: Test System: AMES SALMONELLA TYPHIMURIUM; Strain/Indicator: TA1535; Metabolic Activation: NONE; Method: PREINCUBATION
Calls of active or inactive are those of the source. The rule behind the calls is not given here.
Outcome codes: active, inactive

molecule	cat
CC(O)CN (configuration not stated)	inactive
O=C(c1ccccc1)C(O)c1ccccc1 (configuration not stated)	active
Brc1c(Br)c(Br)c(Oc2c(Br)c(Br)c(Br)c(Br)c2Br)c(Br)c1Br	inactive
c1ccc(COCc2ccccc2)cc1	inactive
CC(C)(c1ccc(OCC2CO2)cc1)c1ccc(OCC2CO2)cc1 (configuration not stated)	active
COC(=O)C1=C(C)NC(C)=C(C(=O)OC/C=C/c2ccccc2)C1c1cccc([N+](=O)[O-])c1 (configuration not stated)	inactive
Nc1ccccc1C(=O)OC/C=C/c1ccccc1	inactive

====

- Test system: CCRIS mutagenicity, Ames/micronucleus/aberration tests
- assaySummary: CCRIS mutagenicity studies
- experimentalContext: Test System: AMES SALMONELLA TYPHIMURIUM; Strain/Indicator: TA1537; Metabolic Activation: S-9; Method: STANDARD PLATE
Calls of active or inactive are those of the source. How the calls were made is not given here.

molecule	mutagenic call
CC(=O)Nc1snc2ccc(Cl)cc12	active; positive
CN1C(=O)[C@]23CC4=CC=C[C@H](O)[C@H]4N2C(=O)[C@@]1(CO)SS3	inactive; negative
COc1cc(O)c2c(c1)C(=O)c1cc(C)cc(O)c1C2=O	active; positive
CCC(C)Nc1snc2ccccc12 (stereo unspecified)	inactive; negative
CS(=O)(=O)OCCCCOS(C)(=O)=O	inactive; negative
CN(N=O)C(=O)c1c(N(C)C(=O)OC(C)(C)C)ncn1C	inactive; negative
CNC(=O)Oc1ccc2c(c1)[C@]1(C)CCN(C)[C@@H]1N2C	inactive; negative
CCCC(=O)Nc1snc2ccc(Cl)cc12	inactive; negative
Nc1ccc2c(=O)[nH]sc2c1	inactive; negative
O=C(CCl)Nc1snc2ccccc12	active; positive
CCC(=O)Nc1snc2ccc(C)cc12	inactive; negative

====

- Tested on: CCRIS mutagenicity, Ames/micronucleus/aberration tests
- assaySummary: CCRIS mutagenicity studies
- experimentalContext: Test System: AMES SALMONELLA TYPHIMURIUM; Strain/Indicator: TA100; Metabolic Activation: NONE; Method: STANDARD PLATE
Activity calls are given as the source filed them. The rule behind the calls is not given here.
Possible outcomes: 1 = active, 0 = inactive

compound	cat
Cl/C=C(\Cl)c1c(Cl)c(Cl)c(Cl)c(Cl)c1Cl	0
O=[N+]([O-])C1=Cc2ccc3ccc4cccc5cc1c2c3c45	1
CCOC(=O)c1[nH]c2ccccc2c1N=Cc1ccc(NC(C)=O)cc1	0
Nc1ccc2nc3ccccn3c2n1	0
CNC(=O)Oc1ccc2c(c1)[C@]1(C)CCN(C)[C@@H]1N2C	0
CCCCOCCOCCOCc1cc2c(cc1CCC)OCO2	0
CC(C)c1cc(-c2ccccc2)ccc1N	0
COc1ccc(C(=O)N2CCN(c3ccc4c(c3)CCC(=O)N4)CC2)cc1OC	0
CCOP(=S)(OCC)SCCl	0
C[C@H](CCC(=O)O)[C@H]1CC[C@H]2[C@@H]3CC[C@@H]4C[C@H](O)CC[C@]4(C)[C@H]3CC[C@]12C	0
Clc1ccc2cc3ccccc3cc2c1	0
CCOC(=O)OC(=O)OCC	0
C[C@]12CCC(=O)C=C1[C@@H]1C[C@@H]1[C@H]1[C@@H]3[C@@H]4C[C@@H]4[C@@]4(CCC(=O)O4)[C@@]3(C)CC[C@@H]12	0
O=C1c2cccc(O)c2C(=O)c2c(O)cccc21	0
CCCOC(=O)c1cc(O)c(O)c(O)c1	0
O=C1Nc2cc3ccccc3c3c4c(cc1c23)OCO4	0
CCOCCc1c(-c2ccccc2)nc(N)n2ncnc12	0
CCN(CC)C(=S)SSC[C@H](NC(C)=O)C(=O)O	0
CN1C[C@H](C(=O)N[C@]2(C)O[C@@]3(O)[C@@H]4CCCN4C(=O)[C@H](Cc4ccccc4)N3C2=O)C=C2c3cccc4[nH]cc(c34)C[C@H]21	0
Cc1cc(C)c(C)cc1C	0
Cc1ccc(N=Nc2c(O)c(C(=O)O)cc3ccccc23)c(S(=O)(=O)O)c1	0
CN(C)c1ccc(N=Nc2cccnc2)cc1	0
c1ccc2c(c1)-c1ccc3ccccc3c1C1OC21 (centres undefined)	1
CCN(CC)c1cc(NC(C)=O)c(N=Nc2c(Br)cc([N+](=O)[O-])cc2[N+](=O)[O-])cc1OC	1
[Cl][Pt][Cl].c1cc2c3c(c1)CCCN3CCC2	0
O=C(/C=C/c1ccc(Br)cc1)c1ccccc1	0
COC(=O)[C@H]1CS[C@H]2C(Cl)=C(Cl)C(=O)N12	1
O=C(O)/C=C/c1cccc([N+](=O)[O-])c1	1
CC(Br)CBr (centres undefined)	0
O=C(Nc1ccc(Br)cc1)c1cc(Br)cc(Br)c1O	0
[Cl][Pd-2]([Cl])([Cl])([Cl])([Cl])[Cl]	0
NCCN1CCNCC1	0
COC(=O)c1cc2c([nH]c3ccccc32)c(-c2ccc3c(n2)C(=O)C=CC3=O)n1	1
CN(C)C(=S)SNCCNSC(=S)N(C)C	1
CC(C)(C)NC[C@H](O)COc1nsnc1N1CCOCC1	0
O=[N+]([O-])c1ccc2ccc3cc4c(c5ccc1c2c35)CCCC4	0
O=[N+]([O-])c1cc2[nH]c3ccc4c(O)cccc4c3c2c2ccccc12	1
O=C(O)c1cn(-c2ccc(F)cc2)c2cc(N3CCNCC3)c(F)cc2c1=O	0
O=P(O)(O)Oc1c(Br)cc(Br)cc1-c1cc(Br)cc(Br)c1O	0
